// data source = patent US20190106460A1

TEST_SYSTEM: T1, Beta Transducin repeat-containing protein (βTrCP), tag cleaved and complexed with Skp1 (UniProt Q9Y297 175-605; P63208 1-163)
T1 construct: the FP protocol says that Ki is determined from FP dose-response curves; also called βTrCP/Skp1
T1 sequence (Q9Y297 175-605, chain 1 of 2): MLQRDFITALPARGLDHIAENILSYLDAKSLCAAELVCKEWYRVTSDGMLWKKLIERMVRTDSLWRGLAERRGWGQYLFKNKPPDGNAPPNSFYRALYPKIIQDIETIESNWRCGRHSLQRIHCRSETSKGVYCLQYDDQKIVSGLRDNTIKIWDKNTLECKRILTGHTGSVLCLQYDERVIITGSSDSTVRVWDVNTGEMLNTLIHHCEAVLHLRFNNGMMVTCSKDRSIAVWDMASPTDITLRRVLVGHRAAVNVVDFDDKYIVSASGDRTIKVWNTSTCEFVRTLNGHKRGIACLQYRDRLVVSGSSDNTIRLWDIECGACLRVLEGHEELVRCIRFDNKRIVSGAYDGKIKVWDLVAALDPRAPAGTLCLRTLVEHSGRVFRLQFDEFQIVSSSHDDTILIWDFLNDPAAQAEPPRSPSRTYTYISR
T1 sequence (P63208 whole entry, chain 2 of 2): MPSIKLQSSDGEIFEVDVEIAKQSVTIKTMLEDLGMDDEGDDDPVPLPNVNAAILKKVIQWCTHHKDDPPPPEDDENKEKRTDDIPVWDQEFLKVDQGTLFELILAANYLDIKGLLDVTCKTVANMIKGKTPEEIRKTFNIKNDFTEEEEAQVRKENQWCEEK
MEASUREMENT_NOTES: FP competition dose-response, fluorescein-IkB peptide tracer on βTrCP/Skp1 (average Ki; assay not given)
Non-standard residues stand in square brackets, D forms with d. *: point of attachment. 2,4,6‑trimethylbenzoyl = Cc1cc(C)c(C(=O)*)c(C)c1; Benzenesulfonyl(4-OMe) = COc1ccc(S(=O)(=O)*)cc1; Phe(3-F) = N[C@@H](Cc1cccc(F)c1)C(=O)O; Benzoyl(4-Me) = Cc1ccc(C(=O)*)cc1; Hexanoyl = CCCCCC(=O)*; Ahx = NCCCCCC(=O)O
METRIC: pKi
API: returns pKi as number; meaning -log10 of concentration in mol/L.

These solved cases illustrate the format of a correct answer.
{Benzenesulfonyl(4-OMe)}-[dD]EG[Phe(3-F)]WE[Ahx]K(phenylsulfonyl)-NH2 (also called UBP073) [4-(MeO)PhSO2-dEGF(3F)WE-Ahx-K(NHSO2Ph)-NH2]; 7.89
{4‑Br‑2‑OCF3‑PhSO2}-[dD]EG[Phe(3-F)]WE-NH2 (also called UBP051) [4-Br-2-OCF3-PhSO2-dEGF(3F)WE-NH2]; 6.96
{3,5‑(CH3)2‑PhSO2}-[dD]EG[Phe(3-F)]WE-NH2 (also called UBP050) [3,5-(CH3)2-PhSO2-dEGF(3F)WE-NH2]; 7.61
{4‑OCF3‑PhSO2}-[dD]EG[Phe(3-F)]WE-NH2 (also called UBP045) [4-OCF3-PhSO2-dEGF(3F)WE-NH2]; 8.32
{Benzenesulfonyl(4-OMe)}-[dD]EG[Phe(3-F)]WE[Ahx]K(phenylcarbamoyl)-NH2 [4-(MeO)PhSO2-dEGF(3F)WE-Ahx-K(NHCONH-Ph)-NH2]; 8.25
{4‑Br‑PhSO2}-[dD]EG[Phe(3-F)]WE-NH2 (also called UBP042) [4-Br-PhSO2-dEGF(3F)WE-NH2]; 8.60
{4‑CF3‑PhSO2}-[dD]EG[Phe(3-F)]WE-NH2 (also called UBP047) [4-CF3-PhSO2-dEGF(3F)WE-NH2]; 8.02
{Benzenesulfonyl(4-OMe)}-[dD]EG[Phe(3-F)]WE[Ahx]K(Hexanoyl)-NH2 (also called UBP063) [4-(MeO)PhSO2-dEGF(3F)WE-Ahx-K(NHCO-(CH2)4CH3)-NH2]; 8.27

Prompt: Suppose we examine the binder {Benzenesulfonyl(4-OMe)}-[dD]EG[Phe(3-F)]WE[Ahx]K(4‑isopropylphenylsulfonyl)-NH2 (also called UBP072) [4-(MeO)PhSO2-dEGF(3F)WE-Ahx-K(NHSO2-(4-i-Pr)-Ph))-NH2] ; what pKi value has been reported?
Response: 7.89

Prompt: Entry {Benzenesulfonyl(4-OMe)}-[dD]EG[Phe(3-F)]WE[Ahx]K(2,4,6‑trimethylbenzoyl)-NH2 (also called UBP056) [4-(MeO)PhSO2-dEGF(3F)WE-Ahx-K(NHCO-(2,4,6-(Me)3-Ph))-NH2] has what pKi?
Response: 8.47

Prompt: Could you share which pKi value was measured for {Benzenesulfonyl(4-OMe)}-[dD]EG[Phe(3-F)]WE-NH2 (SMILES COc1ccc(S(=O)(=O)N[C@H](CC(=O)O)C(=O)N[C@@H](CCC(=O)O)C(=O)NCC(=O)N[C@@H](Cc2cccc(F)c2)C(=O)N[C@@H](Cc2c[nH]c3ccccc23)C(=O)N[C@@H](CCC(=O)O)C(N)=O)cc1, also called UBP022) [4-(MeO)PhSO2-dEGF(3F)WE-NH2] ?
Response: 8.24

Prompt: Item {4‑I‑PhSO2}-[dD]EG[Phe(3-F)]WE-NH2 (also called UBP052) [4-I-PhSO2-dEGF(3F)WE-NH2] has what recorded pKi?
Response: 6.60

Prompt: Fill in: pKi of {Benzenesulfonyl(4-OMe)}-[dD]EG[Phe(3-F)]WE[Ahx]K(4‑methoxybenzoyl)-NH2 (also called UBP066) [4-(MeO)PhSO2-dEGF(3F)WE-Ahx-K(NHCO-(4-(OMe)-Ph))-NH2] is ___
Response: 8.29

Prompt: Need pKi, item {Benzenesulfonyl(4-OMe)}-[dD]EG[Phe(3-F)]WE[Ahx]K-NH2 (not fully specified (residue 8); printed as 4-(MeO)PhSO2-dEGF(3F)WE-Ahx-K(NHCO-Ph)-NH2, also called UBP065) [4-(MeO)PhSO2-dEGF(3F)WE-Ahx-K(NHCO-Ph)-NH2]
Response: 8.23

Prompt: Bench note: what pKi did {Benzenesulfonyl(4-OMe)}-[dD]EG[Phe(3-F)]WE[Ahx]K(4‑n‑propylphenylsulfonyl)-NH2 (also called UBP074) [4-(MeO)PhSO2-dEGF(3F)WE-Ahx-K(NHSO2-(4-(n-Pr)-Ph)-NH2] show?
Response: 7.54

Prompt: Fill in: pKi of {Benzenesulfonyl(4-OMe)}-[dD]EG[Phe(3-F)]WE[Ahx]K(Benzoyl(4-Me))-NH2 (also called UBP057) [4-(MeO)PhSO2-dEGF(3F)WE-Ahx-K(NHCO-(4-(ME)-Ph))-NH2] is ___
Response: 8.54
